Exercise: state measured kon for each of the binders provided.
biological target: T1, Human C5 (human, UniProt P01031 19-1676); assay: SPR, mAb captured by anti-hFc, 25C
T1 construct: The natural protein has a beta and an alpha chain; also called complement factor 5; complement component 5
Answers are plain numbers, in M⁻¹ s⁻¹.

Okay, here is my list. What is kon for each of these?
1. H4H12163P (antibody, human IgG4, V domains shown) VH: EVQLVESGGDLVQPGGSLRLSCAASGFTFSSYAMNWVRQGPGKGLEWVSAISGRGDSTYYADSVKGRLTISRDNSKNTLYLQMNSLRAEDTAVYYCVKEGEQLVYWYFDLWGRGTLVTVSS VL: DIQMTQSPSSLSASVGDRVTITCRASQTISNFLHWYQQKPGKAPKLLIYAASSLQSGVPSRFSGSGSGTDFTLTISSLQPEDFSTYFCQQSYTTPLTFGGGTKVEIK
2. H4H12169P (antibody, human IgG4, V domains shown) VH: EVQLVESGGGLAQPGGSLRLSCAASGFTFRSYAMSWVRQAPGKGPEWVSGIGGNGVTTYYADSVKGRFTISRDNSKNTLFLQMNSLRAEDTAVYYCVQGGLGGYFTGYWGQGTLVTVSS VL: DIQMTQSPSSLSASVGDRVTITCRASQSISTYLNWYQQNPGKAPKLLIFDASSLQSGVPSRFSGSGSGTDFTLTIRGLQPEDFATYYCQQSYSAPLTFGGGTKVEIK
3. H4H12175P (antibody, human IgG4, V domains shown) VH: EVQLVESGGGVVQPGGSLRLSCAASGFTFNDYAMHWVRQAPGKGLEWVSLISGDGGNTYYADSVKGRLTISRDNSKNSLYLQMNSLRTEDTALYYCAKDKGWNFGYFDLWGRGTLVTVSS VL: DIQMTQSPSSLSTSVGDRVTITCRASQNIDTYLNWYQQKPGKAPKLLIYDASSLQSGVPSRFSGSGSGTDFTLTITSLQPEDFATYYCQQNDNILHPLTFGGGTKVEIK
4. H4H12166P6 (antibody, human IgG4, V domains shown, human IgG4 Fc with S108P hinge mutation) VH: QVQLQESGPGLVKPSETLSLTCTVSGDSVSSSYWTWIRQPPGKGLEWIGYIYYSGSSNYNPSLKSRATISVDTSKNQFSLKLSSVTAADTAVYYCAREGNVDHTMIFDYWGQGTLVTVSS VL: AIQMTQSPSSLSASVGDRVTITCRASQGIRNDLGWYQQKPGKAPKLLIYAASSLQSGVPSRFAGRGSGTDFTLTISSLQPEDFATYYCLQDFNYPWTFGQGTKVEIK
5. H4H12166P4 (antibody, human IgG4, V domains shown, human IgG4 Fc with S108P hinge mutation) VH: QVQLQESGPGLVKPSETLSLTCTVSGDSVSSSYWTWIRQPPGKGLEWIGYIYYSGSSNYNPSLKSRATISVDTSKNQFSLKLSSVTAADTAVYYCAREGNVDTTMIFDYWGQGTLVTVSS VL: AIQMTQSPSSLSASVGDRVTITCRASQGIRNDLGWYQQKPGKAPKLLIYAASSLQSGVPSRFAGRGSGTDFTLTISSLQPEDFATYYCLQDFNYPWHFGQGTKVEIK

### Response
1: 643000; 2: 224000; 3: 216000; 4: 489000; 5: 446000
